- testedSystem: T1, cynomolgus IL-18BP (cynomolgus monkey)
- T1 construct: Generated in-house; also called cyIL-18BP; cyno IL-18BP
- T1 chain: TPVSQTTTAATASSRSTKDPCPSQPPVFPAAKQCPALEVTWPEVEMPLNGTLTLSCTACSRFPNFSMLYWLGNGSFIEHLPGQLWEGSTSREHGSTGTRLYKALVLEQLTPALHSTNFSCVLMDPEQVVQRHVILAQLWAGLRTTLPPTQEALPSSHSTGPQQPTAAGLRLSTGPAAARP
- experimentDescription: BLI single-concentration screen, apparent KD
Could you please report measured pKd for the items listed next?
Give bare numbers, as −log10 of the molar value.

heavy chain library variant C34F (antibody, V domains shown) VH: QVQLQESGPGLVKPSQTLSLTCTVSGYSITSDYNFHWIRQPPGKGLEWIGYIHYSGSTNYNPSLKSRVTISRDTSKNQFSLKLSSVTAADTAVYYCARNYGSIYVNYFDYWGQGTLVTVSS VL: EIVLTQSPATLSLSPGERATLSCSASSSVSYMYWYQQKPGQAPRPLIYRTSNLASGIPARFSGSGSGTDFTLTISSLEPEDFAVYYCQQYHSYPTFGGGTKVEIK :: 9.30
SA302a heavy chain variant N33bK, C34A (antibody, human IgG1, V domains shown, library variant, human IgG1/kappa, from supernatant) VH: QVQLQESGPGLVKPSQTLSLTCTVSGYSITSDYKAHWIRQPPGKGLEWIGYIHYSGSTNYNPSLKSRVTISRDTSKNQFSLKLSSVTAADTAVYYCARNYGSIYVNYFDYWGQGTLVTVSS VL: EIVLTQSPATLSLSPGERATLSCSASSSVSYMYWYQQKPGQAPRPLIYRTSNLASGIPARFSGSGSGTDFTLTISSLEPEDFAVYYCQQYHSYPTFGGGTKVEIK :: 9.40
SA301a heavy chain variant N33bS, C34S (antibody, human IgG1, V domains shown, library variant, human IgG1/kappa, from supernatant) VH: QVQLQESGPGLVKPSQTLSLTCTVSGYSITSDYSSHWIRQPPGKGLEWIGYIHYSGSTNYNPSLKSRVTISRDTSKNQFSLKLSSVTAADTAVYYCARNYGSIYVNYFDYWGQGTLVTVSS VL: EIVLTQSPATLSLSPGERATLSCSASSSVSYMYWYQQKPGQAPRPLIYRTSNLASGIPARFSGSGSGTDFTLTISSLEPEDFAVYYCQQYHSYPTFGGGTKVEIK :: 9.00
SA302a heavy chain variant N33bF, C34A (antibody, human IgG1, V domains shown, library variant, human IgG1/kappa, from supernatant) VH: QVQLQESGPGLVKPSQTLSLTCTVSGYSITSDYFAHWIRQPPGKGLEWIGYIHYSGSTNYNPSLKSRVTISRDTSKNQFSLKLSSVTAADTAVYYCARNYGSIYVNYFDYWGQGTLVTVSS VL: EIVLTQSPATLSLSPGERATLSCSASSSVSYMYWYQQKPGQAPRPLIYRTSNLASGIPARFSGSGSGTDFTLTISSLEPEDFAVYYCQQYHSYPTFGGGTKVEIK :: 8.85

Query string: Entry heavy chain library variant C34H (antibody, V domains shown) VH: QVQLQESGPGLVKPSQTLSLTCTVSGYSITSDYNHHWIRQPPGKGLEWIGYIHYSGSTNYNPSLKSRVTISRDTSKNQFSLKLSSVTAADTAVYYCARNYGSIYVNYFDYWGQGTLVTVSS VL: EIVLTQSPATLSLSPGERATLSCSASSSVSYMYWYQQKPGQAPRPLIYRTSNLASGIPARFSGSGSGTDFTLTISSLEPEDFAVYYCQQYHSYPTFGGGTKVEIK has what pKd?
Result string: 9.70

The reported measurements were obtained from patent US20250368745A1.
